# System under test: single, double and triple mutants (N130D, S137C, N139D) of human arginase type I
# Experiment notes: Kinetic properties stated for all loop A mutants together
# Details: all mutants of Table 1; substrate arginine; read-out: Ki for competitive inhibition by the ornithine product
Property name: Ki

Exam item: Give the reported Ki for NCCC[C@H](N)C(=O)O (system: single, double and triple mutants (N130D, S137C, N139D) of human arginase type I).
Marked response: ~7 mM

---

Listed below: Kis (Ki) values for each entry.
# System under test: WT-arginase (human arginase type I) (Homo sapiens, UniProt P05089)
# Construct: made in house; host or cells: E. coli JM109
# Sequence (P05089 1-322): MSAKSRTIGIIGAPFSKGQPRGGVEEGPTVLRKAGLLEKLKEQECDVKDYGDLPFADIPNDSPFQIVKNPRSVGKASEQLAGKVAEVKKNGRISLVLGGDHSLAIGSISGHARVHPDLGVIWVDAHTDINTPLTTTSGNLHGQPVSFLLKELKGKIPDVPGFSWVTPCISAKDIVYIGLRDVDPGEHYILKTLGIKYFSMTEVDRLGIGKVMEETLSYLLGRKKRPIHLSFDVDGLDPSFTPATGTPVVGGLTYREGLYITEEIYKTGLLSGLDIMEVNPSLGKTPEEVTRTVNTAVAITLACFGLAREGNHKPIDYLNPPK
# Experiment notes: Kinetic and inhibition studies, wild-type human arginase type I
# Assay type: biochemical
# Details: substrate arginine; pH 9.5
Use mM as the unit, but write only the number.

Examples with answers:
• N=C(N)NCCCCN = 42
• NCCC[C@H](N)C(=O)O = 2
• N=C(N)N = 56

Exam item: Sample NCCCC[C@H](N)C(=O)O — what was its Kis (Ki)?
Marked response: 5
